Tested on: KM12
assay: NCI tumour cell line growth inhibition, 48 h
Activity calls are given as the source filed them. Cut-off read from the data, not from the text of the source: active = GI50 up to about 1.1 µM and inactive = higher.
valueKind: GI50

# example entries with known answers
>>> recordedmeasurement("O=C1c2ccccc2C(=O)N1Cc1ccccc1-c1c2nc(c(-c3ccccc3CN3C(=O)c4ccccc4C3=O)c3ccc([nH]3)c(-c3ccccc3CN3C(=O)c4ccccc4C3=O)c3nc(c(-c4ccccc4CN4C(=O)c5ccccc5C4=O)c4ccc1[nH]4)C=C3)C=C2")
"> 100 µM (inactive)"
>>> recordedmeasurement("C/C1=C/C(C)CC(C)OC(=O)C(C)NC(=O)C(Cc2ccc(O)c(I)c2)N(C)C(=O)CNC(=O)C(C)C1 (centres undefined)")
"< 0.01 µM (active)"
>>> recordedmeasurement("N#CC(c1ccccc1)c1cccc2ccccc12 (centres undefined)")
"21.8 µM (inactive)"

Asked: GET /values?readout=GI50&item= CCOC(=O)N/N=C(\CC)NO
Given back: > 100 µM (inactive)

====

Test system: OVCAR-4
assay: NCI tumour cell line growth inhibition, 48 h
The source made the active and inactive calls. No stated cut-off is given here; in the data, active = GI50 up to about 1.1 µM and inactive = higher.
valueKind: GI50

# example entries with known answers
>>> recordedmeasurement("O/N=C1/CC2(N3CCOCC3)C3CC/C(=N\\O)C2CC1(Cc1ccccc1)C3 (stereo unspecified)")
"> 100 µM (inactive)"
>>> recordedmeasurement("CCOC(=O)N/N=C(\\CC)NO")
"> 100 µM (inactive)"
>>> recordedmeasurement("Cc1cn(S(=O)(=O)c2ccccc2)c2c(OCc3ccccc3)cc(NC(=O)c3cc4cc([N+](=O)[O-])ccc4s3)cc12")
"> 100 µM (inactive)"
>>> recordedmeasurement("COc1cc([C@@H]2c3cc4c(cc3[C@@H](Nc3ccccc3C(=O)c3ccccc3)[C@H]3COC(=O)[C@H]23)OCO4)cc(OC)c1OC")
"> 27.2 µM (inactive)"
>>> recordedmeasurement("COC1(OC)c2occc2C(=N)c2ccc(=O)oc21")
"> 100 µM (inactive)"
>>> recordedmeasurement("Cc1ccc(S(=O)(=O)N2CCN(CCO)CCN(S(=O)(=O)c3ccc(C)cc3)CCN(CCO)CC2)cc1")
"15 µM (inactive)"
>>> recordedmeasurement("Cc1cc(C[C@H]2O[C@@H]3OC(C)(C)O[C@@H]3[C@H]3OC(C)(C)O[C@H]32)c2ccccc2n1")
"> 100 µM (inactive)"
>>> recordedmeasurement("O=C(O)CSc1ccc([N+](=O)[O-])cc1[N+](=O)[O-]")
"> 100 µM (inactive)"
>>> recordedmeasurement("CCc1ncc(CO)n1Cc1cccc2ccccc12")
"> 100 µM (inactive)"
>>> recordedmeasurement("CCC[C@H]1C(=O)N=C(N)N1C(=O)OCc1ccccc1")
"> 100 µM (inactive)"

Asked: GET /values?readout=GI50&item= Cn1c([C@H](C#N)C(=O)c2cc(O)ccc2[N+](=O)[O-])nc2ccccc21
Given back: > 100 µM (inactive)

Asked: How about this compound: Nc1nc(Cl)cc(NCC2(CO)CCC(CCc3ccccc3)C2)n1 (stereo unspecified)
Given back: 11.9 µM (inactive)

Asked: How about this compound: C=CCOC1OC(CS(=O)(=O)O)C(OC(C)=O)C(OC(C)=O)C1OC(C)=O (stereo unspecified)
Given back: > 100 µM (inactive)

Asked: How about this compound: CC1=CC(=O)NP(=O)(Oc2ccc(C)cc2)N1 (stereo unspecified)
Given back: > 100 µM (inactive)

Asked: How about this compound: CC1=CSC(O)(c2ccc(Cl)cc2)c2noc(=O)n21 (stereo unspecified)
Given back: > 100 µM (inactive)

Provenance of the data: ChEMBL document CHEMBL1201862
